Reported MIC is given for each of the following substances.
tested on: F. oxysporum; assay type: cell-based, F. oxysporum (KCTC 16909); details: 36 h, pH 7.2
No end group written: not given here.
Please reply with the bare figure in µM and do not write the unit itself.

{"SUBSTANCE": "GANALKKVAQGIHEAIKLINNHVQ-NH2 [P2-LZ2]", "RECORDED_MEASUREMENT": 2}
{"SUBSTANCE": "GLNALKKVFQGAHEAIKLANNHVQ-NH2 [P2-LZ3]", "RECORDED_MEASUREMENT": 4}
{"SUBSTANCE": "GLNAAKKVFQGAHEAIKLINNHVQ-NH2 [P2-LZ1]", "RECORDED_MEASUREMENT": 4}
{"SUBSTANCE": "GLNALKKVKQGKHEAIKLINNHVQ-NH2 [P2-LZ5]", "RECORDED_MEASUREMENT": 6}
{"SUBSTANCE": "GLNALKKVFQGIHEAIKLINNHVQ-NH2 [Pseudin-2]", "RECORDED_MEASUREMENT": 4}

Next up:
Provide MIC value for the following substance: GLNALKKVAQGIHEAAKLINNHVQ-NH2 [P2-LZ4]
2

----------
system: C. krusei; type: cell-based, C. krusei (CCARM 14017); conditions: 36 h, pH 5.5
No end group written: not given here.
Reported MIC is given for each of the following substances.

Example cases with answers are listed next.
{"SUBSTANCE": "GLNALKKVAQGIHEAAKLINNHVQ-NH2 [P2-LZ4]", "MIC": "8 µM"}
{"SUBSTANCE": "GLNALKKVKQGKHEAIKLINNHVQ-NH2 [P2-LZ5]", "MIC": "16 µM"}

Provide MIC value for the following substance: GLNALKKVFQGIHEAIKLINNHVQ-NH2 [Pseudin-2]
8 (8) µM

Provide MIC value for the following substance: GLNALKKVFQGAHEAIKLANNHVQ-NH2 [P2-LZ3]
8 (8) µM

Provide MIC value for the following substance: GLNAAKKVFQGAHEAIKLINNHVQ-NH2 [P2-LZ1]
8 (8) µM

Provide MIC value for the following substance: GANALKKVAQGIHEAIKLINNHVQ-NH2 [P2-LZ2]
4 µM

----------
System: A. fumigatus
Format: cell-based, A. fumigatus (KCTC 6145)
Details: 36 h, pH 5.5
Source text: Aspergillus flavus (KCTC 6905), A. fumigatus (KCTC 6145), Fusarium moniliforme (KCTC 6149), F. oxysporum (KCTC 16909), C. albicans (KCTC 7270), C. krusei (CCARM 14017), C. parapsilosis (CCARM 14016), C. tropicalis (KCTC 7221), and T. beigelii (KCTC 7707) were obtained from the Korea Collection for Type Cultures (KCTC) and Culture Collection of Antimicrobial Resistant Microbes (CCARM). […]
No end group written: not given here.
METRIC_NAME: MIC (µM)
Please reply with the bare figure in µM and do not write the unit itself.

Example cases with answers are listed next.
{"SUBSTANCE": "GLNALKKVAQGIHEAAKLINNHVQ-NH2 [P2-LZ4]", "METRIC_NAME": "MIC", "UNITS_SYMBOL": "µM", "RECORDED_MEASUREMENT": 16}
{"SUBSTANCE": "GLNALKKVFQGAHEAIKLANNHVQ-NH2 [P2-LZ3]", "METRIC_NAME": "MIC", "UNITS_SYMBOL": "µM", "RECORDED_MEASUREMENT": 16}
{"SUBSTANCE": "GLNAAKKVFQGAHEAIKLINNHVQ-NH2 [P2-LZ1]", "METRIC_NAME": "MIC", "UNITS_SYMBOL": "µM", "RECORDED_MEASUREMENT": 16}
{"SUBSTANCE": "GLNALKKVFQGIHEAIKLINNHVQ-NH2 [Pseudin-2]", "METRIC_NAME": "MIC", "UNITS_SYMBOL": "µM", "RECORDED_MEASUREMENT": 24}

Next up:
Give reported MIC for GANALKKVAQGIHEAIKLINNHVQ-NH2 [P2-LZ2] (A. fumigatus)
16
